- experiment_description: Human plasma stability (Protocols 1 and 2)
- Format: in vitro ADME
- applied_conditions: human; Protocol 2; plasma pH 7.4 to 8.0, 5 μM, 37° C.; read-out: T1/2
Would you mind sorting the entries by half-life at 5 μM according to these classes? lowest = under 2 h, middle = from 2 h up to 9 h, highest = 9 h and over

Q. Place this compound in its band: COc1cc2c(C(=O)OCC34CCN(CC3)CC4)c[nH]c2cc1C.Cl
A. middle

Q. Which class is correct for the following compound? Cc1cc2c(C(=O)OCC34CCN(CC3)CC4)c[nH]c2cc1C#N
A. middle

Q. Kindly identify the class of Cl.O=C(OCC12CCN(CC1)CC2)c1c[nH]c2cc(F)cc(Cl)c12 .
A. highest

Q. Which band does Cl.O=C(OCC12CCN(CC1)CC2)c1c[nH]c2cc(Cl)cc(Cl)c12 fall in?
A. middle

Q. Any idea which band Cl.O=C(OCC12CCN(CC1)CC2)c1c[nH]c2cccc(C(F)(F)F)c12 is in?
A. highest

Q. Returns: class label. Input: Cc1ccc2c(C(=O)OCC34CCN(CC3)CC4)c[nH]c2c1.Cl
A. lowest

Q. Would you mind sorting Cc1cc2[nH]cc(C(=O)OCC34CCN(CC3)CC4)c2cc1C.Cl into the appropriate category?
A. lowest

Q. Bin this entry: Cl.O=C(OCC12CCN(CC1)CC2)c1c[nH]c2cc(O)c(F)cc12
A. middle

====

Hi there, I'd appreciate the recorded HLM for every entry that follows.
- experiment_description: Metabolic stability assay in human liver microsomes (HLM; Protocols 1 and 2)
- Format: in vitro ADME
- applied_conditions: human, microsomes, 1 μM
Counter-ions that a name gives are not always drawn.
# output: bare number, implied unit mL/min/kg

Q. Returns the measured HLM for the input molecule. Input: Cc1cc(O)cc2[nH]cc(C(=O)OCC34CCN(CC3)CC4)c12
A. 2.7

Q. Would you mind telling me what HLM value was observed for COc1cc2c(C(=O)OCC34CCN(CC3)CC4)c[nH]c2cc1Cl [Compound 69, hydrochloride] ?
A. 8.8

Q. Quick check: HLM of Cc1ccc2[nH]cc(C(=O)OCC34CCN(CC3)CC4)c2c1C ?
A. 0

Q. If you can, please state the reported HLM value of Cc1cc(F)cc2[nH]cc(C(=O)OCC34CCN(CC3)CC4)c12 .
A. 3.5

Q. Which HLM value belongs to Cc1cc2c(C(=O)OCC34CCN(CC3)CC4)c[nH]c2cc1Cl ?
A. 0

====

- experiment_description: Metabolic stability assay in human liver microsomes (HLM; Protocols 1 and 2)
- Format: in vitro ADME
- applied_conditions: Protocol 1; human liver microsomes, 1 μM, NADPH, 37° C.
property_name: HLM (mL/min/kg)
Numbers only here, please. The scale is mL/min/kg.

Q. HLM lookup needed for COc1cc2c(C(=O)OCC34CCN(CC3)CC4)c[nH]c2cc1F [Compound 57] , thanks.
A. 0

Q. Can you look up the measured HLM of Cc1cc2[nH]cc(C(=O)OCC34CCN(CC3)CC4)c2cc1Cl.Cl [Compound 66] for me?
A. 0

Q. Would you mind telling me what HLM value was observed for COc1cc2[nH]cc(C(=O)OCC34CCN(CC3)CC4)c2cc1OC [Compound 87] ?
A. 0.5

Q. Look up HLM: Cl.O=C(OCC12CCN(CC1)CC2)c1c[nH]c2cc(O)c(F)cc12 [Compound 59]
A. 0

====

- study_target: rat brain nicotinic receptor (α7 NAChR, α-Bungarotoxin binding site) (Rattus norvegicus, UniProt Q05941)
- Sequence (Q05941 23-502): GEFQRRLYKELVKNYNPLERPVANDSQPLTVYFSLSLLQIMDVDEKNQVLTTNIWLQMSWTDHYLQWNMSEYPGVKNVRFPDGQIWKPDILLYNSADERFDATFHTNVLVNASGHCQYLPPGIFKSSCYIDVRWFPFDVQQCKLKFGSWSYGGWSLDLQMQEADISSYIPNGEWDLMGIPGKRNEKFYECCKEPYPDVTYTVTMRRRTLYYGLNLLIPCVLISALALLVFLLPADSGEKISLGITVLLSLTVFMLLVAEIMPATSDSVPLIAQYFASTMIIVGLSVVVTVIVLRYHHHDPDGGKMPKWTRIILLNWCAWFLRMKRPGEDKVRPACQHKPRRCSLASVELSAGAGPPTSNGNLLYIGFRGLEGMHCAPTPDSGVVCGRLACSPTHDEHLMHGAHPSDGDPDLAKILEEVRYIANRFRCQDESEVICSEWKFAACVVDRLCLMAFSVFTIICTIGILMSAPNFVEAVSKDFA
property_name: IC50
Please answer in the form of a number followed by its unit of measurement.

Q. Find the recorded IC50 belonging to COc1ccc2c(C(=O)OCC34CCN(CC3)CC4)c[nH]c2c1 [Compound 10] and report it.
A. 321 nM

Q. Given the entry COc1cc2c(C(=O)OCC34CCN(CC3)CC4)c[nH]c2cc1C.Cl [Compound 79, hydrochloride] , report its measured IC50.
A. 159 nM

====

- experiment_description: Human plasma stability (Protocols 1 and 2)
- Format: in vitro ADME
- applied_conditions: human, plasma, pH 7.4
Structures can show the parent of a compound that is named as a salt.
property_name: log10 half-life at 5 μM (log10 of the value in h)
In our notation, the value equals log10 of half-life at 5 μM in h.

Q. Param item = Cc1c(OCCO)ccc2[nH]cc(C(=O)OCC34CCN(CC3)CC4)c12 [Compound 95, 2,2,2-trifluoroacetate salt] ; retrieve measured log10 half-life at 5 μM.
A. 0.82

Q. Item under review: COc1cc2c(C(=O)OCC34CCN(CC3)CC4)c[nH]c2cc1Cl [Compound 69, hydrochloride] . Reported log10 half-life at 5 μM?
A. 0.84

Q. Consider the compound shown here: COc1ccc2[nH]cc(C(=O)OCC34CCN(CC3)CC4)c2c1Br [Compound 47] What is its recorded log10 half-life at 5 μM?
A. 0.64

Q. Fill in: log10 half-life at 5 μM of CNCCCOc1ccc2[nH]cc(C(=O)OCC34CCN(CC3)CC4)c2c1C [Compound 96, dihydrochloride] is ___
A. -0.94

Q. Entry under review: O=C(OCC12CCN(CC1)CC2)c1c[nH]c2ccc(F)c(Cl)c12 [Compound 62, hydrochloride] . Reported log10 half-life at 5 μM?
A. 0.77

Q. // lookup log10 half-life at 5 μM for CC(=O)Nc1cc(C)c2c(C(=O)OCC34CCN(CC3)CC4)c[nH]c2c1 [Compound 93]
A. 1.03

Q. Look up log10 half-life at 5 μM for this compound: Cc1cc(C#N)cc2[nH]cc(C(=O)OCC34CCN(CC3)CC4)c12 [Compound 60]
A. 1.36

Q. Quick check: log10 half-life at 5 μM of Cc1c(OCC(F)(F)F)ccc2[nH]cc(C(=O)OCC34CCN(CC3)CC4)c12 [Compound 94] ?
A. 0.76

Q. Look at this compound and give its reported log10 half-life at 5 μM. COc1cc2[nH]cc(C(=O)OCC34CCN(CC3)CC4)c2cc1C [Compound 56]
A. 0.76

Q. Bench note: what log10 half-life at 5 μM did Cc1cc(C)c2c(C(=O)OCC34CCN(CC3)CC4)c[nH]c2c1 [Compound 54] show?
A. 1.05

Q. Form field: reported log10 half-life at 5 μM of COc1cc2c(C(=O)OCC34CCN(CC3)CC4)c[nH]c2cc1C#N [Compound 76]
A. 0.69

Q. Need log10 half-life at 5 μM, item Cc1ccc2[nH]cc(C(=O)OCC34CCN(CC3)CC4)c2c1C [Compound 70]
A. 0.62

====

- experiment_description: Human plasma stability (Protocols 1 and 2)
- Format: in vitro ADME
- applied_conditions: human, plasma, 2 h, 1 μM, pH 7.4
property_name: % Remaining @ 2 h (%)
Numeric answer only, unit % assumed.

Q. Look up % Remaining @ 2 h: COc1ccc2[nH]cc(C(=O)OCC34CCN(CC3)CC4)c2c1 [Compound 18]
A. 5.8

Q. Which % Remaining @ 2 h value is on record for O=C(OCC12CCN(CC1)CC2)c1c[nH]c2cc(Br)ccc12 [Compound 22] ?
A. 58

Q. Endpoint output: % Remaining @ 2 h of COc1cccc2[nH]cc(C(=O)OCC34CCN(CC3)CC4)c12 [Compound 36] . Value?
A. 2.5

Q. Consider the compound O=C(OCC12CCN(CC1)CC2)c1c[nH]c2cc(Cl)ccc12 [Compound 26] and give its measured % Remaining @ 2 h.
A. 65

Q. Requested read-out: % Remaining @ 2 h. Entry: COc1ccc2[nH]cc(C(=O)OCC34CCN(CC3)CC4)c2c1C [Compound 34]
A. 55

Q. For the compound shown here, N#Cc1ccc2c(C(=O)OCC34CCN(CC3)CC4)c[nH]c2c1 [Compound 28] , give the reported % Remaining @ 2 h.
A. 79

Q. Record request: % Remaining @ 2 h value, item O=C(OCC12CCN(CC1)CC2)c1c[nH]c2cc(O)ccc12 [Compound 14]
A. 26

Q. GET /values?readout=% Remaining @ 2 h&item= O=C(OCC12CCN(CC1)CC2)c1c[nH]c2cccc(Cl)c12 [Compound 35]
A. 56

Q. # get_value(readout='% Remaining @ 2 h', item= O=C(OCC12CCN(CC1)CC2)c1c[nH]c2cccc(Br)c12 [Compound 24] )
A. 89

Q. Any idea what % Remaining @ 2 h was measured for Cc1cccc2[nH]cc(C(=O)OCC34CCN(CC3)CC4)c12 [Compound 21] ?
A. 83

Q. Using the record for O=C(OCC12CCN(CC1)CC2)c1c[nH]c2ccccc12 [Compound 1] , report its % Remaining @ 2 h.
A. 11

Q. Which % Remaining @ 2 h value belongs to O=C(OCC12CCN(CC1)CC2)c1c[nH]c2ccc(F)cc12 [Compound 12] ?
A. 31

Q. Query (compound): O=C(OCC12CCN(CC1)CC2)c1c[nH]c2ccc(Br)cc12 [Compound 23] ; field requested: % Remaining @ 2 h
A. 21

Q. // % Remaining @ 2 h lookup, key: Cc1ccc2[nH]cc(C(=O)OCC34CCN(CC3)CC4)c2c1 [Compound 20]
A. 14
